- System: SNB-19
- Protocol Text: NCI tumour cell line growth inhibition, 48 h
The source made the active and inactive calls. Rule as the data show it: active = GI50 up to about 1.1 µM and inactive = higher.
Measurement Kind: GI50

Recorded results for 5 compounds are shown here.
>>> result("CCCCCC(=O)OCC(=O)[C@H]1[C@H](C)C[C@H]2[C@@H]3C[C@H](F)C4=C/C(=N/OC(=O)c5cccc6c(=O)c7ccccc7[nH]c56)C=C[C@]4(C)[C@H]3[C@@H](O)C[C@@]21C")
"37.3 µM (inactive)"
>>> result("O=C(O)C1CCCCC1C(=O)Nn1cnnc1 (stereo unspecified)")
"> 100 µM (inactive)"
>>> result("COc1ccc(C2=C(N)c3ncccc3C2=O)cc1")
"> 100 µM (inactive)"
>>> result("COc1c(C)c(OC)c(C(=O)CC(C)C)c(OC)c1C")
"24.9 µM (inactive)"
>>> result("O=C(/C=C/c1ccc2c(c1)OCO2)NCCc1ccco1")
"> 100 µM (inactive)"

Ask | I would be grateful if you could share the reported GI50 for Cc1ccc(NC(=O)CC/C(CC(=O)C(C)(C)C)=N/NC(=O)C[N+](C)(C)C)cc1C .
Reply | > 100 µM (inactive)

Ask | Quick one: GI50 of CC(=O)OC1C2CCC1C1C2C2(Cl)C(Cl)=C(Cl)C1(Cl)C2(Cl)Cl (stereo unspecified) ?
Reply | 15.1 µM (inactive)
